Tested Target: human CCR10 (Homo sapiens)
Construct: expressed in transfected cells
Sequence (P46092 1-362): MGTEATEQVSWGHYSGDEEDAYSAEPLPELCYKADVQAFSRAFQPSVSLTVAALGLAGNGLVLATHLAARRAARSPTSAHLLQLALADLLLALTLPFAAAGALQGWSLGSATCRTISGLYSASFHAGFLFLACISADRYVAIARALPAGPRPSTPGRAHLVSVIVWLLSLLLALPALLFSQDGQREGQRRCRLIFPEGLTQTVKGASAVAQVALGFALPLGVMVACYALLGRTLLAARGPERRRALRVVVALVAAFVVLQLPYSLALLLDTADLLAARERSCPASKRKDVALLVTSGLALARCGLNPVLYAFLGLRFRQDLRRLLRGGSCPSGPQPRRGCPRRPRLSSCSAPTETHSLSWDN
Experiment: Chemotaxis assay (CCR10-transfected 300-19 cells, CCL27 gradient)
Type: cell-based
Condition Notes: CCR10-transfected 300-19 murine pre-B cells; 30 nM CCL27 gradient
Square brackets hold non-standard residues; d marks the D form. Peptide text beside a SMILES is read from it. * marks the point of attachment. Hyp = O=C(O)[C@@H]1C[C@@H](O)CN1; Ac5c = NC1(C(=O)O)CCCC1; Dab = NCC[C@H](N)C(=O)O; Bn = c1ccc(C*)cc1
Observation Type: IC50

Entry NCC[C@@H]1NC(=O)[C@H](Cc2c[nH]c3ccccc23)NC(=O)C2(CCCC2)NC(=O)[C@H](Cc2c[nH]c3ccccc23)NC(=O)[C@@H]2C[C@@H](OCc3ccccc3)CN2C(=O)[C@H]2CCCN2C1=O [compound 45, cyclo(-Trp-Cyp-Trp-Dab-^DPro-Hyp(Bn)-)] (cyclo([Ac5c]W[Dab][dP][Hyp](Bn)W)) : IC50 on human CCR10 (Homo sapiens) = 14 nM

---

Tested Target: human CCR10 (Homo sapiens, UniProt P46092)
Construct: expressed in transfected cells
Experiment: Calcium flux assay (CCR10 antagonism, CCL27 as agonist)
Assay type: cell-based
Condition Notes: CCR10 transfected 300-19 murine pre-B cells; CCL27 30 nM
Numbered stars: 1 amine (or outer) side, 2 acyl side, 3 side chain; on linkers, the order of the positions; unused ones are H or OH. Square brackets hold non-standard residues; d marks the D form. Side chains are listed from the residue outwards. Peptide text beside a SMILES is read from it. * marks the point of attachment. X4 = N#Cc1cccc(C[C@@H]2C[C@@H](C(=O)[*:2])N([*:1])C2)c1; X1 = O=C([C@@H]1C[C@@H](Cc2ccc(Br)cc2)CN1[*:1])[*:2]; Pro(4R-OPh) = O=C(O)[C@@H]1C[C@@H](Oc2ccccc2)CN1; Trp(6-Cl) = N[C@@H](Cc1c[nH]c2cc(Cl)ccc12)C(=O)O; Phe(4-CF3) = N[C@@H](Cc1ccc(C(F)(F)F)cc1)C(=O)O; Oic = O=C(O)[C@@H]1C[C@@H]2CCCC[C@@H]2N1; Phe(4-CN) = N#Cc1ccc(C[C@H](N)C(=O)O)cc1; Phe(4-Cl) = N[C@@H](Cc1ccc(Cl)cc1)C(=O)O; Pro(cis-4-F) = O=C(O)[C@@H]1C[C@H](F)CN1; Phe(4-F) = N[C@@H](Cc1ccc(F)cc1)C(=O)O; 2Nal = N[C@@H](Cc1ccc2ccccc2c1)C(=O)O; Hyp = O=C(O)[C@@H]1C[C@@H](O)CN1; Tic = O=C(O)[C@@H]1Cc2ccccc2CN1; MeOCH2CH2OCH2CO = COCCOCC(=O)*; Benzyl(4-Br) = Brc1ccc(C*)cc1; N(Me)CH2CH2OMe = COCCN(C)*; Pip = O=C(O)[C@@H]1CCCCN1; dPip = O=C(O)[C@H]1CCCCN1; Ac5c = NC1(C(=O)O)CCCC1; Dab = NCC[C@H](N)C(=O)O; dAze = O=C(O)[C@H]1CCN1; Aib = CC(C)(N)C(=O)O; CO = O=C([*:1])[*:2]; Bn = c1ccc(C*)cc1
Kindly supply the reported log10(IC50) values for the records listed here.
Heads up: the numbers are on a log10 scale; they represent IC50 in nM.

Form field log10(IC50), entry NCC[C@@H]1NC(=O)[C@H](Cc2c[nH]c3ccccc23)NC(=O)C2(CCCC2)NC(=O)[C@H](Cc2ccc3ccccc3c2)NC(=O)[C@@H]2CCCCN2C(=O)[C@H]2CCCCN2C1=O [Ex. 10, cyclo(-2NaI-Cyp-Trp-Dab-^DPip-Pip-)] (cyclo([2Nal][Ac5c]W[Dab][dPip][Pip])) : 1.64

The compound identified as COCCN(C)C(=O)NCC[C@@H]1NC(=O)[C@H](Cc2c[nH]c3ccccc23)NC(=O)C2(CCCC2)NC(=O)[C@H](Cc2c[nH]c3ccccc23)NC(=O)[C@@H]2C[C@@H]3CCCC[C@@H]3N2C(=O)[C@H]2CCCN2C1=O [Ex. 97] (cyclo([Ac5c]W[Dab]([CO-N(Me)CH2CH2OMe])[dP][Oic]W)) registered its log10(IC50) at 0.91

// log10(IC50) value for COCCOCC(=O)NCC[C@@H]1NC(=O)[C@H](Cc2c[nH]c3ccccc23)NC(=O)C2(CCCC2)NC(=O)[C@H](Cc2c[nH]c3ccccc23)NC(=O)[C@@H]2C[C@@H]3CCCC[C@@H]3N2C(=O)[C@H]2CCCN2C1=O [Ex. 72] (cyclo([Ac5c]W[Dab](MeOCH2CH2OCH2CO)[dP][Oic]W)) : 1.80

Per the records, this compound ( NCC[C@@H]1NC(=O)[C@H](Cc2c[nH]c3ccccc23)NC(=O)C2(CCCC2)NC(=O)[C@H](Cc2c[nH]c3cc(Cl)ccc23)NC(=O)[C@@H]2C[C@@H](OCc3ccccc3)CN2C(=O)[C@H]2CCCN2C1=O [compound 48] (cyclo([Ac5c]W[Dab][dP][Hyp](Bn)[Trp(6-Cl)])) ) has log10(IC50) equal to 0.93

Entry NCC[C@@H]1NC(=O)[C@H](Cc2c[nH]c3ccccc23)NC(=O)C2(CCCC2)NC(=O)[C@H](Cc2c[nH]c3ccccc23)NC(=O)[C@@H]2Cc3ccccc3CN2C(=O)[C@H]2CCN2C1=O [Ex. 26, cyclo(-Trp-Cyp-Trp-Dab-^DAze-Tic-)] (cyclo([Ac5c]W[Dab][dAze][Tic]W)) ; log10(IC50) = 1.76

Lookup result for NCC[C@@H]1NC(=O)[C@H](Cc2ccc(Cl)cc2)NC(=O)C2(CCCC2)NC(=O)[C@H](Cc2c[nH]c3ccccc23)NC(=O)[C@@H]2C[C@@H](OCc3ccccc3)CN2C(=O)[C@H]2CCCN2C1=O [Ex. 43] (cyclo([Ac5c][Phe(4-Cl)][Dab][dP][Hyp](Bn)W)) ; measured log10(IC50): 1.60

Record summary for NCC[C@@H]1NC(=O)[C@H](Cc2c[nH]c3ccccc23)NC(=O)C2(CCCC2)NC(=O)[C@H](Cc2c[nH]c3ccccc23)NC(=O)[C@@H]2C[C@@H](Oc3ccccc3)CN2C(=O)[C@H]2CCCN2C1=O [compound 52, cyclo(-Trp-Cyp-Trp-Dab-^DPro-Hyp(Ph)-)] (cyclo([Ac5c]W[Dab][dP][Pro(4R-OPh)]W)) : reported log10(IC50) = 1.62

The compound N#Cc1ccc(C[C@@H]2NC(=O)[C@@H]3C[C@@H](OCc4ccccc4)CN3C(=O)[C@H]3CCCN3C(=O)[C@H](CO)NC(=O)[C@H](Cc3ccc(F)cc3)NC(=O)C3(CCCC3)NC2=O)cc1 [compound 44] (cyclo([Ac5c][Phe(4-F)]S[dP][Hyp](Bn)[Phe(4-CN)])) showed log10(IC50) equal to 0.28

According to the records, this compound NCC[C@@H]1NC(=O)[C@H](Cc2c[nH]c3ccccc23)NC(=O)C2(CCCC2)NC(=O)[C@H](Cc2c[nH]c3ccccc23)NC(=O)[C@@H]2C[C@H](F)CN2C(=O)[C@H]2CCCN2C1=O [Ex. 4] (cyclo([Ac5c]W[Dab][dP][Pro(cis-4-F)]W)) displays log10(IC50) of 2.93

Note to self: log10(IC50) recorded for N#Cc1cccc(C[C@@H]2C[C@H]3C(=O)N[C@@H](Cc4c[nH]c5ccccc45)C(=O)NC4(CCCC4)C(=O)N[C@@H](Cc4c[nH]c5ccccc45)C(=O)N[C@@H](CCN)C(=O)N4CCC[C@@H]4C(=O)N3C2)c1 [compound 40] (cyclo([Ac5c]W[Dab][dP][X4]W)) was 1.45

The compound CC1(C)NC(=O)[C@H](Cc2c[nH]c3ccccc23)NC(=O)[C@@H]2Cc3ccccc3CN2C(=O)[C@H]2CCCN2C(=O)[C@H](CCN)NC(=O)[C@H](Cc2c[nH]c3ccccc23)NC1=O [Ex. 2, cyclo(-Trp-Aib-Trp-Dab-^DPro-Tic-)] (cyclo([Aib]W[Dab][dP][Tic]W)) showed log10(IC50) equal to 2.30

Lab book: log10(IC50) of NCC[C@@H]1NC(=O)[C@H](Cc2c[nH]c3ccccc23)NC(=O)C2(CCCC2)NC(=O)[C@H](Cc2ccc(C(F)(F)F)cc2)NC(=O)[C@@H]2C[C@@H](OCc3ccc(Br)cc3)CN2C(=O)[C@H]2CCCN2C1=O [Ex. 54] (cyclo([Ac5c]W[Dab][dP][Hyp](Benzyl(4-Br))[Phe(4-CF3)])) noted as 1.35

Record N#Cc1ccc(C[C@@H]2NC(=O)[C@@H]3C[C@@H](OCc4ccccc4)CN3C(=O)[C@H]3CCCN3C(=O)[C@H](CCC(N)=O)NC(=O)[C@H](Cc3c[nH]c4ccccc34)NC(=O)C3(CCCC3)NC2=O)cc1 [compound 47] (cyclo([Ac5c]WQ[dP][Hyp](Bn)[Phe(4-CN)])) . Reported log10(IC50): 1.34

Looking up NCC[C@@H]1NC(=O)[C@H](Cc2c[nH]c3ccccc23)NC(=O)C2(CCCC2)NC(=O)[C@H](Cc2c[nH]c3ccccc23)NC(=O)[C@@H]2C[C@@H](Cc3ccc(Br)cc3)CN2C(=O)[C@H]2CCCN2C1=O [compound 39] (cyclo([Ac5c]W[Dab][dP][X1]W)) , I see its log10(IC50) listed as 1.20
